Each item that follows carries a reported Th-T fluorescence, mean of three wells.
Target: Aβ42 (Homo sapiens, UniProt P05067)
Sequence (P05067 672-713): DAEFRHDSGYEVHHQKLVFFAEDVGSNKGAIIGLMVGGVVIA
Experiment: Th-T (thioflavin-T) assay of Aβ42 aggregation
Assay type: biochemical
Conditions: Supplementary Fig. 47 source data; measurement M50 of time course
# output: bare number, no unit

compound="C=C1CCC2C3(C)CC(C=C(C)C)OC3CCC2(C)C1Cc1c(OC)oc(C)c(C)c1=O (stereo not drawn)" observed_measurement=3.972
compound=C=C1CC[C@H]2[C@]3(C)C[C@@H](C=C(C)C)O[C@H]3CC[C@]2(C)[C@@H]1Cc1c(OC)oc(CO)c(C)c1=O observed_measurement=3.516
compound="C=C1CCC2C(C)(CC(=O)C=C(C)C)C(O)CCC2(C)C1Cc1c(O)c(C)c(C)oc1=O (stereo not drawn)" observed_measurement=3.623

Problem: Provide one value: measured Th-T fluorescence, mean of three wells of C=C1CC[C@H]2[C@]3(C)C[C@@H](C=C(C)C)O[C@H]3CC[C@]2(C)[C@@H]1Cc1c(O)c(C)c(C)oc1=O
Result: 2.7097

Problem: Provide one value: measured Th-T fluorescence, mean of three wells of C=C1CCC2C(C)(CC(=O)C=C(C)C)C(O)CCC2(C)C1Cc1c(OC)oc(C)c(C)c1=O (stereo not drawn)
Result: 3.788

Problem: Provide one value: measured Th-T fluorescence, mean of three wells of CC(C)=CCC/C(C)=C/CC/C(C)=C/CC/C(C)=C/Cc1c(O)c(C)c(C)oc1=O
Result: 2.863

Problem: Provide one value: measured Th-T fluorescence, mean of three wells of C=C1CC[C@@H]2[C@](C)(CC[C@H]3O[C@H](C=C(C)C)C[C@@]23C)[C@@H]1Cc1c(O)c(C)c(C)oc1=O
Result: 3.143

Problem: Provide one value: measured Th-T fluorescence, mean of three wells of C=C1CCC2C(C)(CCC=C(C)C)C(=O)CCC2(C)C1Cc1c(O)c(C)c(C)oc1=O (stereo not drawn)
Result: 2.229
